Experiment: Quantitative High-Throughput drug screen in 47 multiple myeloma cell lines against the NCATS MIPE library collection: RPMI8226_ATCC cell viability assay (AID 1919871); note: nearly all actives have a fitted effect of over 30% in size
Conditions: RPMI8226 myeloma viability, CellTiter-Glo ATP luminescence, 48 h; series mostly up to 45.8 µM
Text: PI: Beverly A. Mock Ph.D. Laboratory of Cancer Biology and Genetics, Center for Cancer Research, National Cancer Institute, National Institute of Health, Bethesda, Maryland […] 5; Detector; 425V; Luminescence; Viewlux PerkinElmer. […] 1. […] Briefly, the corresponding myeloma cell lines were screened in 1,536-well plates with 500 cells, 5-uL per well for inhibition of cell viability (assessed by measuring ATP levels with CellTiterGlo). […]
Records with an inconclusive call do not appear. The source made the active and inactive calls. Calls come from the whole dose curve; as a rule, active = well fitted cell-killing curve with a large enough effect; inconclusive = small, poorly fitted or top-dose-only effect, or effect the other way; inactive = no such curve, though single readings can be large or run the other way.
Result category, one only: active, inactive

>>> qualitative_label("C[C@]12CC[C@H]3[C@@H](CCC4=CC(=O)CC[C@@]43C)[C@H]1CC[C@H]2O")
"inactive"
>>> qualitative_label("CN[C@@H]1Cc2cccc3[nH]c(=O)n(c23)C1")
"inactive"

Assay result, entry COC[C@H]1OC(=O)c2coc3c2[C@@]1(C)C1=C(C3=O)[C@@H]2CC[C@H](O)[C@@]2(C)C[C@@H]1OC(C)=O — outcome?
active

Assay result, entry COc1cc2cc(c1Cl)N(C)C(=O)C[C@H](OC(=O)C(C)C)[C@]1(C)O[C@H]1[C@H](C)[C@@H]1C[C@@](O)(NC(=O)O1)[C@H](OC)C=CC=C(C)C2 — outcome?
inactive

Assay result, entry COC(=O)[C@@H](N)CCCN=C(N)N[N+](=O)[O-] — outcome?
inactive

Assay result, entry Cc1ccccc1-n1c(Cn2ncc3c(N)ncnc32)nc2cccc(C)c2c1=O — outcome?
active

Assay result, entry c1cc2c(cc1[C@H]1OC[C@H]3[C@H]1CO[C@H]3c1ccc3c(c1)OCO3)OCO2 — outcome?
inactive

Assay result, entry CC(N[C@H]1C[C@H]1c1ccccc1)c1ccc2c(c1)OCCO2 (stereo not given in full) — outcome?
inactive

Assay result, entry C[C@@H]1O[C@@H](O[C@@H]2C=C3CC[C@@H]4[C@@H](CC[C@]5(C)[C@H](c6ccc(=O)oc6)CC[C@@]45O)[C@@]3(C)CC2)[C@H](O)[C@H](O)[C@H]1O — outcome?
active

Assay result, entry Oc1ccc2c3c1O[C@H]1c4[nH]c5c(c4C[C@@]4(O)[C@@H](C2)N(CC2CC2)CC[C@]314)C[C@@]1(O)[C@H]2Cc3ccc(O)c4c3[C@@]1(CCN2CC1CC1)[C@H]5O4 — outcome?
inactive
